Listed compounds paired with reported clearance
test: Clearance in rat at 2 mg/kg; assay type: ADME, organism-based; conditions: in vivo
Field format: number, assumed mL/min/kg, no unit text.

{"columns": ["SMILES_RECORD", "clearance / mL/min/kg"],
 "data": [
  ["CC(C)(C)Nc1ncc(C(N)=O)c(N[C@@H]2CCC[C@H](O)C2)n1", 78]
]}

Please turn your attention to the following entry.
Ask: If you can, please state the reported clearance value of C[C@@H]1CC[C@@H](Nc2nc(NC(C)(C)C)ncc2C(N)=O)C[C@H]1O .
Reply: 11

Reference source: ChEMBL document CHEMBL4840378
